As shown below, each of these compounds has a reported percent inhibition of viability value.
Tested on: NKL (IL-2 2.5 ng/mL);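 note: normalised to DMSO-only wells as negative and benzethonium chloride as positive control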
Assay notes: percent inhibition of viability; higher = more inhibition
Recorded conditions: 72 h; 10 nM
Field format: number, assumed %, no unit text.

Solved cases below.
1) CN(C)c1cc2c(cc1Sc1nc3c(N)nccc3n1CCNCC(C)(C)C)OCO2 [CUDC-305] (max concentration tested 10000 nM) :: -13.6
2) Cn1cc(C2=Nc3cc(NC(=O)C(N)C4CCCCC4)cc4c3C2=CNNC4=O)cn1 (configuration not stated) (max concentration tested 10000 nM) :: 2.84
3) C=CC[C@@H]1/C=C(\C)C[C@H](C)C[C@H](OC)[C@H]2O[C@@](O)(C(=O)C(=O)N3CCCC[C@H]3C(=O)O[C@H](/C(C)=C/[C@@H]3CC[C@@H](O)[C@H](OC)C3)[C@H](C)[C@@H](O)CC1=O)[C@H](C)C[C@@H]2OC [Tacrolimus] (max concentration tested 10000 nM) :: -6.4
4) COc1ccc(C[C@H](NC(=O)[C@H](C)NC(=O)CN2CCOCC2)C(=O)N[C@@H](Cc2ccccc2)C(=O)C2(C)CO2)cc1 (stereo in doubt) [ONX-0914] (max concentration tested 10000 nM) :: 1.76
5) OC[C@H]1O[C@@H](n2cnc3c2N=CNC[C@H]3O)C[C@@H]1O [Pentostatin] (max concentration tested 10000 nM) :: -21.1
6) COc1cccc2c1C(=O)c1c(O)c3c(c(O)c1C2=O)C[C@@](O)(C(C)=O)C[C@@H]3O[C@H]1C[C@H](N)[C@H](O)[C@H](C)O1 [Daunorubicin] (max concentration tested 1000 nM) :: 88.5
7) CNC(=O)c1ccc(N2C(=S)N(c3ccc(C#N)c(C(F)(F)F)c3)C(=O)C2(C)C)cc1F [Enzalutamide] (max concentration tested 10000 nM) :: -13.2
8) CCn1c(-c2nonc2N)nc2c(C#CC(C)(C)O)ncc(OC[C@H]3CCCNC3)c21 (max concentration tested 10000 nM) :: -17.8

Given CN(C)C/C=C/C(=O)Nc1cc2c(Nc3ccc(F)c(Cl)c3)ncnc2cc1O[C@H]1CCOC1 [Afatinib] (max concentration tested 1000 nM) , state its recorded percent inhibition of viability.
8.09

Given O=C1NC(=O)/C(=C/c2ccc3nccc(-c4ccncc4)c3c2)S1 (max concentration tested 10000 nM) , state its recorded percent inhibition of viability.
-12.9

Given COc1cc([C@@H]2c3cc4c(cc3[C@@H](O[C@@H]3O[C@@H]5CO[C@@H](c6cccs6)O[C@H]5[C@H](O)[C@H]3O)[C@H]3COC(=O)[C@H]23)OCO4)cc(OC)c1O [Teniposide] (max concentration tested 10000 nM) , state its recorded percent inhibition of viability.
49.3

Given COc1cc(O)c2c(c1)/C=C/C[C@H](O)[C@H](O)C(=O)/C=C\C[C@H](C)OC2=O [(5Z)-7-Oxozeaenol] (max concentration tested 10000 nM) , state its recorded percent inhibition of viability.
17.5

Given C[C@H]1C[C@@H]2[C@H]([C@@H](O)C[C@@]3(C)[C@H]2CC[C@]3(O)C(=O)CO)[C@@]2(C)C=CC(=O)C=C12 [Methylprednisolone] (max concentration tested 10000 nM) , state its recorded percent inhibition of viability.
31.1
